# Assay system: T1, human TREM2 expressed on cells (human, UniProt Q9NZC2 19-230)
# T1 construct: BW5147.G.1.4 cells stably expressing human TREM2 together with Dap12, or endogenous TREM2 of primary human myeloid cells; also called huT2 BW; hTREM2 expressing cell line
# T1 sequence: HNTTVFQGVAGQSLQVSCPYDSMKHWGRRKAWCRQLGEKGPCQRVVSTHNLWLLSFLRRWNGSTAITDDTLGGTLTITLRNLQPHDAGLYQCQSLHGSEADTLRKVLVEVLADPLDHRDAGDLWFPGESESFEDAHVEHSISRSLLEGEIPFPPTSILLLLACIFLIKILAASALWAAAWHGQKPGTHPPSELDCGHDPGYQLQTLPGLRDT
# Test name: FACS, hTREM2 BW cells
Observation type: cell binding (FOB)
Write the value in FOB as a bare number.

Binder	cell binding (FOB)
AL2p-h43 (antibody, human IgG1, V domains shown, humanized, human IgG1; Fab and IgG formats under one id) VH: QVQLVQSGAEVKKPGASLKVSCKASGYAFSSSWMNWVRQAPGQRLEWIGRIYPGDGDTNYNGEFRVRATLTADTSASTAYMELSSLRSEDTAVYFCARLLRNQPGESYAMDYWGQGTLVTVSS VL: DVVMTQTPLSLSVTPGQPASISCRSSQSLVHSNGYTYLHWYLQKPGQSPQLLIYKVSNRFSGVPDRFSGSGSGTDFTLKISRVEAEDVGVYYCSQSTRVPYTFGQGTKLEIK	91

// lookup cell binding (FOB) for AL2p huIgG1 (human mouse chimeric parental antibody) (antibody, V domains shown, Mouse variable region with human IgG1 Fc region; Fab and IgG formats under one id; also called chimeric parental AL2p antibody as huIgG1) VH: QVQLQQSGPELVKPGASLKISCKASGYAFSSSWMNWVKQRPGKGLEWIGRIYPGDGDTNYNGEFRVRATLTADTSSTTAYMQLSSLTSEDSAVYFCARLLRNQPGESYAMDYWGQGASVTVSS VL: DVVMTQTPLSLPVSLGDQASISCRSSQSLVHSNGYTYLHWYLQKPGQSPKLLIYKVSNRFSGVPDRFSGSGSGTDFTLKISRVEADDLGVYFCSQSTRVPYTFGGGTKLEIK 79

// lookup cell binding (FOB) for AL2p-h76 (antibody, human IgG1, V domains shown, humanized, human IgG1; Fab and IgG formats under one id) VH: QVQLVQSGAEVKKPGASVKVSCKASGYAFSSSWMNWVRQAPGQRLEWIGRIYPGDGDTNYAQKFQGRATITADTSASTAYMELSSLRSEDTAVYFCARLLRNQPGESYAMDYWGQGTLVTVSS VL: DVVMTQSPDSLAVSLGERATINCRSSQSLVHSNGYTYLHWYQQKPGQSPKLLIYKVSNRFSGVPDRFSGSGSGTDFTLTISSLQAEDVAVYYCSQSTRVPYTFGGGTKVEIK 86
